Method Notes: Percentage inhibition of N-methyl-D-aspartic acid (NMDA) receptor produced by oocytes
Property Measured: IC50 (µM)
// return numeric value only (unit: µM, not printed)

Task item: So what's the measured IC50 for this one? CCC(N)[C@@H]1C[C@@]1(C(=O)N(CC)CC)c1ccccc1 (stereo partly specified)
Reply: 51
